Reference for the values: ChEMBL document CHEMBL1201862

tested on: MOLT-4; test: NCI tumour cell line growth inhibition, 48 h
Activity calls are given as the source filed them. No stated cut-off is given here; in the data, active = GI50 up to about 1.1 µM and inactive = higher.
Give your call using only these classes: Yes for active, No for inactive

Write down the call the test reported for this compound. Item: O=C(Cc1cccs1)N[C@@H]1C(=O)N2C(C(=O)OC(c3ccccc3)c3ccccc3)=C(CO)CS[C@H]12
No

Write down the call the test reported for this compound. Item: CC[C@@]1(O)C(=O)OCc2c1cc1n(c2=O)Cc2c-1nc1ccccc1c2/C=N\c1ccc(N[C@@H]2c3cc4c(cc3[C@@H](c3cc(OC)c(O)c(OC)c3)[C@H]3C(=O)OC[C@@H]32)OCO4)cc1
Yes

Write down the call the test reported for this compound. Item: N#C/C(=C\NC(=S)c1ccncc1)c1nc2ccccc2s1
No

Write down the call the test reported for this compound. Item: COc1cc2nncc(Sc3cnnc4ccccc34)c2cc1OC
No

Write down the call the test reported for this compound. Item: COC(=O)CC[C@@H](NC(=O)C(C)NC(=O)COC1C(O)C(COC(=O)CCCCCCCCCCNC(=O)c2ccc([N+](=O)[O-])c3[nH]c4cc(Br)ccc4c(=O)c23)OC(OCc2ccccc2)C1NC(C)=O)C(N)=O (some centres not stated)
No

Write down the call the test reported for this compound. Item: CC(C)(C)N1C(=O)[N-]/[N+](=C(/C(c2ccccc2)=[N+]2/[N-]C(=O)N(C(C)(C)C)C2=O)c2ccccc2)C1=O
No

Write down the call the test reported for this compound. Item: O=C1OCCC1C(O)C1c2ccccc2-c2ccccc21 (configuration not stated)
No

* * *

system: HL-60; assay: NCI tumour cell line growth inhibition, 48 h
Activity calls are given as the source filed them. Rule as the data show it: active = GI50 up to about 1.1 µM and inactive = higher.
measured attribute: GI50

Provide GI50, recorded with HL-60, of Nc1nc(NCCCO)cc(=O)[nH]1
> 100 µM (inactive)

Provide GI50, recorded with HL-60, of O=C(c1ccccc1)C(c1ccccc1)C1(O)C(=O)Nc2c(Cl)cc(Cl)cc21 (stereo not given)
12.6 µM (inactive)

Provide GI50, recorded with HL-60, of S=c1c2ccccc2c(=S)n2n1CC=CC2
> 100 µM (inactive)

Provide GI50, recorded with HL-60, of COCCOCC(=O)N(CCn1ccc(NC(c2ccccc2)(c2ccccc2)c2ccccc2)nc1=O)CCn1cnc2nc(N)[nH]c(=O)c21
> 100 µM (inactive)

Provide GI50, recorded with HL-60, of O=C1C=CC2(C=C1)CCNC1=C2C(=O)c2ccccc2C1=O
> 100 µM (inactive)

Provide GI50, recorded with HL-60, of COC(=O)c1c(O)ccc2c1c1c(n2Cc2ccc(Cl)cc2Cl)C(=O)c2ccccc2C1=O
13.8 µM (inactive)

Provide GI50, recorded with HL-60, of C#CC(O)/C=C/C(O)CCCC(O)CC#CC(O)C#CC(O)CCCC(O)/C=C/CCCCCC(=O)CCCCCCCCCCCCCC(O)C(O)C#CC(=O)O (stereo not given)
26.8 µM (inactive)

Provide GI50, recorded with HL-60, of C[C@]12CC(c3ccccc3O1)C(C#N)C(=O)N2 (stereo not given in full)
> 100 µM (inactive)

Provide GI50, recorded with HL-60, of O=Cc1c[nH]c2c(=O)[nH]cnc12
> 100 µM (inactive)

Provide GI50, recorded with HL-60, of CC(=O)NNc1nc(C)c(C(/C=C/c2ccc3c(c2)OCO3)=N/NC(=O)c2ccncc2)s1
> 100 µM (inactive)

* * *

test system: M19-MEL; experiment: NCI tumour cell line growth inhibition, 48 h
Active and inactive are the calls of the source. Cut-off read from the data, not from the text of the source: active = GI50 up to about 1.1 µM and inactive = higher.
Give your call using only these classes: YES for active, NO for inactive

Write down the call the test reported for this compound. Item: CC1(C)C(O)OC(O)C1(C)C (configuration not stated)
NO

Write down the call the test reported for this compound. Item: CC(NS(=O)(=O)c1ccc(Cl)cc1)C(=O)O (configuration not stated)
NO

Write down the call the test reported for this compound. Item: O=C1OCCC1C(O)C1c2ccccc2-c2ccccc21 (configuration not stated)
NO

Write down the call the test reported for this compound. Item: COc1ccc(-c2oc3cc(O)c(OC)c(O)c3c(=O)c2O)cc1
NO

Write down the call the test reported for this compound. Item: CC1=NN(C(=O)c2ccc(Cl)cc2)C(=O)/C1=C/c1cccc(O)c1
NO

Write down the call the test reported for this compound. Item: c1ccc2c3c([nH]c2c1)[C@H]1C2CCCCN2CN1CC3 (some centres not stated)
NO

Write down the call the test reported for this compound. Item: O=C(O)C12C3C4C1C1C2C3C41I (configuration not stated)
NO

Write down the call the test reported for this compound. Item: C/C(=N\[N+](C)(C)C)C(c1ccccc1)C1(c2ccccc2)C(c2ccccc2)=C1c1ccccc1 (configuration not stated)
NO

Write down the call the test reported for this compound. Item: COC1(C)C(=O)N2C1N(C(=O)OCc1ccccc1)CC2(C)C (configuration not stated)
NO

Write down the call the test reported for this compound. Item: OCCNCN(CNCCO)c1nc(N(CNCCO)CNCCO)nc(N(CNCCO)CNCCO)n1
YES

Write down the call the test reported for this compound. Item: NC(=O)COc1ccc(Br)cc1Br
NO

Write down the call the test reported for this compound. Item: CC1(C)OC(C[C@]2(C#N)C[C@H](CCl)OC(C)(C)O2)C[C@@H](C[C@]2(C#N)C[C@H](CCl)OC(C)(C)O2)O1 (some centres not stated)
NO

Write down the call the test reported for this compound. Item: COc1cc(CC2C(=O)OCC2[C@@H](OC(C)=O)c2ccc3c(c2)OCO3)c(Br)c(OC)c1OC (some centres not stated)
NO

Write down the call the test reported for this compound. Item: CC(=O)NC(CCCNC(=O)OCc1ccccc1)C(=O)NCc1ccccc1 (configuration not stated)
NO

Write down the call the test reported for this compound. Item: O=S(=O)(N/N=C\c1c2ccccc2[n+]([O-])c2ccccc12)c1ccc(Cl)cc1
NO

Write down the call the test reported for this compound. Item: COc1ccc(C(c2ccc(C(C)C)cc(OC)c2=O)c2ccc(C(C)C)cc(OC)c2=O)cc1
NO

Write down the call the test reported for this compound. Item: COc1ccc(/N=N/c2c(-c3ccccc3)nn(C(=O)CC(=O)Nc3cccc(Cl)c3)c2-c2ccccc2)cc1
NO

* * *

Hi there, I'd appreciate the recorded GI50 for every entry that follows.
system: HCT-116; assay: NCI tumour cell line growth inhibition, 48 h
Activity calls are given as the source filed them. Rule as the data show it: active = GI50 up to about 1.1 µM and inactive = higher.

For the molecule C/C=C1\CN2CCc3c([nH]c4ccccc34)C2CC1C(=O)OC (stereo not given) , report GI50.
> 322 µM (inactive)

For the molecule CO[C@]12C[C@H](CNC(=O)c3ccc[nH]3)O[C@H]1NC(=O)N2 , report GI50.
> 100 µM (inactive)

For the molecule CCOC(=O)/C=C(\C)c1ccc(OC)cc1 , report GI50.
> 100 µM (inactive)

For the molecule O=C(Cc1cccs1)N[C@@H]1C(=O)N2C(C(=O)OC(c3ccccc3)c3ccccc3)=C(CO)CS[C@H]12 , report GI50.
> 100 µM (inactive)

For the molecule c1ccc2c3c([nH]c2c1)[C@H]1C2CCCCN2CN1CC3 (stereo not given in full) , report GI50.
> 100 µM (inactive)

* * *

tested on: HOP-92; assay: NCI tumour cell line growth inhibition, 48 h
Active and inactive are the calls of the source. No stated cut-off is given here; in the data, active = GI50 up to about 1.1 µM and inactive = higher.
Give your call using only these classes: label 1 (active), label 0 (inactive)

Write down the call the test reported for this compound. Item: COc1nc(Cl)c(Cl)c(Cl)n1.COc1nc(Cl)nc(Cl)c1Cl
label 0

Write down the call the test reported for this compound. Item: CC(C)(CN)CN
label 0

Write down the call the test reported for this compound. Item: CCOC(=O)C1S/C(=N\C(=N)N[N+](=O)[O-])N=C1C (configuration not stated)
label 0

Write down the call the test reported for this compound. Item: COc1ccc(CN2C(=O)CCC/C=C\[C@H]2CI)cc1
label 0

Write down the call the test reported for this compound. Item: Cc1ccc2nc(-c3ccc(-n4c(C)nc(=O)c(-c5ccc(F)cc5)c4C)cc3)sc2c1
label 0

Write down the call the test reported for this compound. Item: NCCCNCCS
label 0

Write down the call the test reported for this compound. Item: C/N=c1/ssc(=S)n1C(C)C
label 0

Write down the call the test reported for this compound. Item: O=C(N(O)c1ccccc1Cl)C(O)(c1ccccc1)c1ccccc1
label 0

Write down the call the test reported for this compound. Item: Cc1ccc(S(=O)(=O)NC(=O)Nc2nc[nH]n2)cc1
label 0

Write down the call the test reported for this compound. Item: Nc1ccn([C@@H]2C=C(CO)[C@@H](O)[C@H]2O)c(=O)n1
label 1

Write down the call the test reported for this compound. Item: O=C(Cc1ccccc1)NCCCN(CCCCN(CCCNC(=O)Cc1ccccc1)C(=O)OCc1ccccc1)C(=O)OCc1ccccc1
label 0

Write down the call the test reported for this compound. Item: CCOC(=O)C(NC(=O)CC)(Nc1ccccc1OC)C(F)(F)F (configuration not stated)
label 0

Write down the call the test reported for this compound. Item: COc1cccc(N2CCc3c(C)c(C#N)c4nc5ccccc5n4c32)c1
label 0

Write down the call the test reported for this compound. Item: CC1(C)[C@@H]2C[C@H]1c1cnc(-c3ccccn3)cc1[C@H]2C(O)[C@@H]1c2cc(-c3ccccn3)ncc2[C@H]2C[C@@H]1C2(C)C (some centres not stated)
label 1

Write down the call the test reported for this compound. Item: CCCC(=O)Nc1ncnc2c1ncn2C1OC2COP(=O)(O)OC2C1OC(=O)CCC (configuration not stated)
label 0

Write down the call the test reported for this compound. Item: CCc1nc(N)nc(N)c1-c1ccc(Cl)c(N=[N+]=[N-])c1
label 0

Write down the call the test reported for this compound. Item: C(=N/Nc1ccc(-c2nc3ccccc3[nH]2)cc1)/c1c(-c2ccccc2)[nH]c2ccccc12
label 0

Write down the call the test reported for this compound. Item: NC(=O)c1nnn(Cc2cc(Cl)c(C(=O)c3ccc(Cl)cc3)c(Cl)c2)c1N
label 0

Write down the call the test reported for this compound. Item: C/C(=N\[N+](C)(C)C)C(c1ccccc1)C1(c2ccccc2)C(c2ccccc2)=C1c1ccccc1 (configuration not stated)
label 0

Write down the call the test reported for this compound. Item: Cn1c(=O)n2n(c1=O)C(S(=O)(=O)c1ccccc1)C2 (configuration not stated)
label 0

Write down the call the test reported for this compound. Item: COc1ccc2c(c1)c(=O)c1c(NCCN(C)C)ccc3nnn2c31
label 0

Write down the call the test reported for this compound. Item: O=C(N/C=C/C=C/Sc1ccccc1)OCc1ccccc1
label 0

Write down the call the test reported for this compound. Item: CN(Cc1cc(Cl)c(Cl)cc1NC(=O)CN)[C@H]1CCCC[C@@H]1N1CCCC1
label 0

Write down the call the test reported for this compound. Item: COC1OC(C)C2OC(C)(C)OC2C1OC(C)=O (configuration not stated)
label 0

Write down the call the test reported for this compound. Item: Cc1c(-c2ccccc2)c(C#N)c2nnn(C3CCCCC3)c(=O)n12
label 0

Write down the call the test reported for this compound. Item: COc1ccccc1NC(=O)CC(=O)N1N=C(C)C(/N=N/c2ccc(C(=O)O)cc2)C1=O (configuration not stated)
label 0

Write down the call the test reported for this compound. Item: C=C1C(C(O)C[C@H](C)C2O[C@@]3(CCCCO3)CCC2C)O[C@@H]2CCC3(CCC(/C=C/[C@@H](C)C4CC(C)=CC5(O4)O[C@H](C[C@](C)(O)C(=O)O)CCC5O)O3)OC2[C@@H]1O (some centres not stated)
label 1

Write down the call the test reported for this compound. Item: COc1ccc(-c2csc(-n3c(-c4ccccc4)nc4c(Br)cc(Br)cc4c3=O)n2)cc1
label 0

Write down the call the test reported for this compound. Item: O=[N+]([O-])/C=C\c1c[nH]c2ccc(OCc3ccccc3)cc12
label 0

Write down the call the test reported for this compound. Item: CC(=O)O[C@H]1C(=O)[C@@]2(C)[C@H]([C@H](OC(=O)c3ccccc3)[C@]3(O)C[C@H](OC(=O)[C@H](O)[C@@H](NC(=O)c4ccccc4)C4CCCCC4)C(C)=C1C3(C)C)[C@]1(OC(C)=O)CO[C@@H]1C[C@@H]2O
label 1

Write down the call the test reported for this compound. Item: COc1cc2nncc(Sc3cnnc4ccccc34)c2cc1OC
label 0

Write down the call the test reported for this compound. Item: O=C(O)C1CCCN1Cc1c[nH]c2ccccc12 (configuration not stated)
label 0

Write down the call the test reported for this compound. Item: C=C1C(=O)OC2C=C(CCC(C)=O)C(C)C(OC(C)=O)CC12 (configuration not stated)
label 0

Write down the call the test reported for this compound. Item: C=C1CC2C(=O)N(c3ccccc3)C(=O)C2CC1n1[nH]c(=O)n(Cc2ccccc2)c1=O (configuration not stated)
label 0

Write down the call the test reported for this compound. Item: CCOC(=O)c1nc2ccccc2nc1Oc1ccc(C#N)cc1
label 0

Write down the call the test reported for this compound. Item: CC1=C2CC3=C(C)C(=O)O[C@H]3C[C@@H](C)[C@@H]2CC1 [AMERICANOLIDE D]
label 0

Write down the call the test reported for this compound. Item: CCCCCCCCCCOC(=O)NCCC
label 0
